Target: Free fatty acid receptor 1 (Homo sapiens)
Sequence (O14842 whole entry): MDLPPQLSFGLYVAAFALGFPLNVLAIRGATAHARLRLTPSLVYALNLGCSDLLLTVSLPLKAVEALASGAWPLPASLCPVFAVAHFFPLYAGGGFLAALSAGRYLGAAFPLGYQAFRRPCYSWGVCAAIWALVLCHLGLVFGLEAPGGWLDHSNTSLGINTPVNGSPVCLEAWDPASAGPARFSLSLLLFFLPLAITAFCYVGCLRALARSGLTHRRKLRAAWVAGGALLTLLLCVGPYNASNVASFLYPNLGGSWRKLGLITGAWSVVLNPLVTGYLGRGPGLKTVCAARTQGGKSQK
Assay: Agonist activity at human GPR40 expressed in CHO cells by calcium influx assay
Field: EC50. Provide a value for each of the molecules that follow.
Report the figure in µM without appending any unit label.

Data request: Consider the molecule O=C(O)CCc1ccc(OCc2nnc(C(=O)Nc3cccc(Cl)c3)s2)cc1 and give its measured EC50.
Data returned: 10.6

Data request: Consider the molecule Cc1ccc(NC(=O)c2nnc(COc3ccc(CCC(=O)O)cc3)s2)cc1 and give its measured EC50.
Data returned: 4.3

Data request: Consider the molecule O=C(O)CCc1nnc(C(=O)Nc2cccc(-c3ccc(F)cc3)c2)s1 and give its measured EC50.
Data returned: 1.28

Data request: Consider the molecule O=C(O)CCc1ccc(OCc2nnc(C(=O)Nc3ccc(Cl)cc3)s2)cc1 and give its measured EC50.
Data returned: 3.69

Data request: Consider the molecule Cc1ccccc1NC(=O)c1nnc(COc2ccc(CCC(=O)O)cc2)s1 and give its measured EC50.
Data returned: 1.52

Data request: Consider the molecule O=C(O)CCc1ccc(OCc2nnc(C(=O)Nc3ccccc3F)s2)cc1 and give its measured EC50.
Data returned: 0.58

Every entry's value here was drawn from ChEMBL document CHEMBL3804779.
